# Test system: K. oxytoca GN10650
# method description: in vitro antibacterial activity, agar plate dilution method (MIC)
# Assay type: cell-based
# test settings: Klebsiella oxytoca, GN10650, 16 h, read-out: Minimum Inhibitory Concentration (MIC), *K. oxytoca GN10650, lactamase-producing strain; 10^6 CFU/ml

{"columns": ["compound", "unit spec", "MIC"],
 "data": [
  ["CC(C)(O/N=C(\\C(=O)N[C@@H]1C(=O)N2C(C(=O)[O-])=C(C[n+]3ccccc3)CS[C@H]12)c1csc(N)n1)C(=O)O [ceftazidime, reference compound]", "mg/L", 0.1],
  ["CON=C(C(=O)NC1C(=O)N2C(C(=O)O)=C(CSc3nc(C(=O)O)c(-c4ccc(O)c(O)c4)s3)CSC12)c1csc(N)n1 (stereo not shown)", "mg/L", 6.25],
  ["Nc1nc(/C(=N/OC2(C(=O)O)CC2)C(=O)N[C@@H]2C(=O)N3C(C(=O)O)=C(CSc4nnc(-c5ccc(O)c(O)c5)s4)CS[C@H]23)cs1", "mg/L", 0.025],
  ["Nc1nc(C(=NOC2(C(=O)O)CC2)C(=O)NC2C(=O)N3C(C(=O)O)=C(CSc4nc(-c5ccc(O)c(O)c5)c(CC(=O)O)s4)CSC23)cs1 (stereo not shown)", "mg/L", 0.39],
  ["Nc1nc(/C(=N/OCC(=O)O)C(=O)N[C@@H]2C(=O)N3C(C(=O)O)=C(CSc4nnc(-c5ccc(O)c(O)c5)o4)CS[C@H]23)cs1", "mg/L", 0.1],
  ["CC(C)(O/N=C(\\C(=O)N[C@@H]1C(=O)N2C(C(=O)O)=C(CSc3nnc(-c4ccc(O)c(O)c4)s3)CS[C@H]12)c1csc(N)n1)C(=O)O", "mg/L", 0.025],
  ["CCON=C(C(=O)N[C@@H]1C(=O)N2C(C(=O)[O-])=C(CSc3nc(-c4ccc(OC(C)=O)c(OC(C)=O)c4)cs3)CS[C@H]12)c1csc(N)n1.[Na+]", "mg/L", 6.25]
]}

---

# System: E. cloacae 963
# method description: in vitro antibacterial activity, agar plate dilution method (MIC)
# Assay type: cell-based
# test settings: Enterobacter cloacae, 963, 16 h, read-out: Minimum Inhibitory Concentration (MIC), E. cloacae 963; 10^6 CFU/ml
Counter-ions that a name gives are not always drawn.
Label MET when MIC < 0.1 µg/mL; otherwise NOT MET.

{"columns": ["molecule", "group"],
 "data": [
  ["CO/N=C(\\C(=O)N[C@@H]1C(=O)N2C(C(=O)O)=C(CSc3nc(-c4ccc(OC(C)=O)cc4)c(CC(=O)O)s3)CS[C@H]12)c1csc(N)n1 [compound 18, reference compound]", "NOT MET"],
  ["CON=C(C(=O)NC1C(=O)N2C(C(=O)O)=C(CSc3ncc(-c4ccc(O)c(O)c4)o3)CSC12)c1csc(N)n1 (centres unmarked)", "MET"],
  ["CO/N=C(\\C(=O)N[C@@H]1C(=O)N2C(C(=O)O)=C(CSc3nnc(-c4ccc(O)c(O)c4)s3)CS[C@H]12)c1csc(N)n1", "MET"],
  ["Nc1nc(/C(=N/OCc2ccc(O)c(O)c2)C(=O)N[C@@H]2C(=O)N3C(C(=O)O)=C(CSc4nnc(-c5ccc(O)c(O)c5)o4)CS[C@H]23)cs1", "NOT MET"],
  ["CCO/N=C(\\C(=O)N[C@@H]1C(=O)N2C(C(=O)O)=C(CSc3nnc(-c4ccc(O)c(O)c4)o3)CS[C@H]12)c1csc(N)n1", "MET"],
  ["CO/N=C(\\C(=O)N[C@@H]1C(=O)N2C(C(=O)O)=C(CSc3nc(-c4ccc(OC)c(OC)c4)cs3)CS[C@H]12)c1csc(N)n1 [compound 13, trifluoroacetate, reference compound]", "NOT MET"],
  ["CC(C)(O/N=C(\\C(=O)N[C@@H]1C(=O)N2C(C(=O)O)=C(CSc3ncc(-c4ccccc4)o3)CS[C@H]12)c1csc(N)n1)C(=O)O [compound 22, reference compound]", "NOT MET"]
]}

---

# Tested on: E. cloacae Nek 39
# method description: in vitro antibacterial activity, agar plate dilution method (MIC)
# Type: cell-based
# test settings: Enterobacter cloacae, NEK39, 16 h; *E. cloacae Nek 39, lactamase-producing strain; 10^6 CFU/ml; read-out: Minimum Inhibitory Concentration (MIC)
Counter-ions that a name gives are not always drawn.

{"columns": ["molecule", "target desc", "unit spec", "MIC"],
 "data": [
  ["CC(C)(O/N=C(\\C(=O)N[C@@H]1C(=O)N2C(C(=O)O)=C(CSc3nnc(-c4ccccc4)s3)CS[C@H]12)c1csc(N)n1)C(=O)O [compound 6, reference compound]", "E. cloacae Nek 39", "µg/mL", 50],
  ["CC(=O)Oc1ccc(-c2nc(SCC3=C(C(=O)O)N4C(=O)[C@@H](NC(=O)/C(=N\\OC(C)(C)C(=O)O)c5csc(N)n5)[C@H]4SC3)sc2CC(=O)O)cc1 [compound 20, reference compound]", "E. cloacae Nek 39", "µg/mL", 25],
  ["CO/N=C(\\C(=O)N[C@@H]1C(=O)N2C(C(=O)O)=C(CSc3nnc(-c4ccccc4)o3)CS[C@H]12)c1csc(N)n1 [compound 1, trifluoroacetate, reference compound]", "E. cloacae Nek 39", "µg/mL", 3.12],
  ["CO/N=C(\\C(=O)N[C@@H]1C(=O)N2C(C(=O)O)=C(CSc3nnc(-c4ccccc4)s3)CS[C@H]12)c1csc(N)n1 [compound 5, trifluoroacetate, reference compound]", "E. cloacae Nek 39", "µg/mL", 3.12],
  ["CC(C)(O/N=C(\\C(=O)N[C@@H]1C(=O)N2C(C(=O)O)=C(CSc3nc(-c4ccccc4)c(CC(=O)O)s3)CS[C@H]12)c1csc(N)n1)C(=O)O [compound 16, reference compound]", "E. cloacae Nek 39", "µg/mL", 25],
  ["CO/N=C(\\C(=O)N[C@@H]1C(=O)N2C(C(=O)O)=C(CSc3nnc(-c4ccc(O)cc4)s3)CS[C@H]12)c1csc(N)n1 [compound 7, reference compound]", "E. cloacae Nek 39", "µg/mL", 3.12]
]}

---

# System: Ps. cepacia 23
# method description: in vitro antibacterial activity, agar plate dilution method (MIC)
# Assay type: cell-based, Pseudomonas cepacia
# test settings: Burkholderia cepacia, 16 h; Ps. cepacia 23; 10^6 CFU/ml; read-out: Minimum Inhibitory Concentration (MIC)
List of MIC values.

{"columns": ["compound", "MIC"],
 "data": [
  ["CO/N=C(\\C(=O)N[C@@H]1C(=O)N2C(C(=O)O)=C(CSc3nnc(-c4ccc(O)c(O)c4)s3)CS[C@H]12)c1csc(N)n1", "< 6 ng/mL"],
  ["CC(C)(ON=C(C(=O)NC1C(=O)N2C(C(=O)O)=C(CSc3nc(-c4ccc(O)c(O)c4)cs3)CSC12)c1csc(N)n1)C(=O)O (stereo not drawn)", "< 6 ng/mL"],
  ["Nc1nc(/C(=N/OCc2ccccc2CC(=O)O)C(=O)N[C@@H]2C(=O)N3C(C(=O)O)=C(CSc4nnc(-c5ccc(O)c(O)c5)o4)CS[C@H]23)cs1", "< 6 ng/mL"]
]}

---

# Test system: Ps. aeruginosa AK 109
# method description: in vitro antibacterial activity, agar plate dilution method (MIC)
# Format: cell-based, Pseudomonas aeruginosa
# test settings: Pseudomonas aeruginosa, AK109, 16 h, read-out: Minimum Inhibitory Concentration (MIC)
List of MIC values.

{"columns": ["compound", "unit spec", "MIC"],
 "data": [
  ["CON=C(C(=O)NC1C(=O)N2C(C(=O)O)=C(CSc3nc(C(=O)O)c(-c4ccc(O)c(O)c4)s3)CSC12)c1csc(N)n1 (centres unmarked) [Ex. 52]", "µg/mL", 12.5],
  ["CO/N=C(\\C(=O)N[C@@H]1C(=O)N2C(C(=O)O)=C(CSc3nc(-c4ccc(O)cc4)cs3)CS[C@H]12)c1csc(N)n1 [compound 10, reference compound]", "µg/mL", 12.5],
  ["Nc1nc(/C(=N/OC(C(=O)O)c2ccc(O)c(O)c2)C(=O)N[C@@H]2C(=O)N3C(C(=O)O)=C(CSc4ncc(-c5ccc(O)c(O)c5)o4)CS[C@H]23)cs1 (some centres unmarked) [Ex. 65]", "µg/mL", 0.39],
  ["Nc1nc(C(=NOC(C(=O)O)c2ccccc2)C(=O)NC2C(=O)N3C(C(=O)O)=C(CSc4nc(C(=O)O)c(-c5ccc(O)c(O)c5)s4)CSC23)cs1 (single isomer, unassigned) [Example 51 DB]", "µg/mL", 0.39],
  ["CON=C(C(=O)NC1C(=O)N2C(C(=O)O)=C(CSc3ncc(-c4ccc(O)c(O)c4)o3)CSC12)c1csc(N)n1 (centres unmarked) [Ex. 62]", "µg/mL", 3.12],
  ["CON=C(C(=O)NC1C(=O)N2C(C(=O)O)=C(CSc3nc(-c4ccc(OC(C)=O)c(OC(C)=O)c4)cs3)CSC12)c1csc(N)n1 (centres unmarked) [compound 40]", "µg/mL", 3.12],
  ["Nc1nc(/C(=N/OC2(C(=O)O)CC2)C(=O)N[C@@H]2C(=O)N3C(C(=O)O)=C(CSc4ncc(-c5ccc(O)c(O)c5)o4)CS[C@H]23)cs1 [Ex. 66]", "µg/mL", 0.39],
  ["Nc1nc(/C(=N/OC(C(=O)O)c2ccccc2)C(=O)N[C@@H]2C(=O)N3C(C(=O)O)=C(CSc4nnc(-c5ccc(O)c(O)c5)o4)CS[C@H]23)cs1 (some centres unmarked) [Ex. 15]", "µg/mL", 0.39]
]}
